Target: H1047R PIK3CA enzyme (Homo sapiens, UniProt P42336, H1047R)
Sequence (P42336 whole entry H1047R): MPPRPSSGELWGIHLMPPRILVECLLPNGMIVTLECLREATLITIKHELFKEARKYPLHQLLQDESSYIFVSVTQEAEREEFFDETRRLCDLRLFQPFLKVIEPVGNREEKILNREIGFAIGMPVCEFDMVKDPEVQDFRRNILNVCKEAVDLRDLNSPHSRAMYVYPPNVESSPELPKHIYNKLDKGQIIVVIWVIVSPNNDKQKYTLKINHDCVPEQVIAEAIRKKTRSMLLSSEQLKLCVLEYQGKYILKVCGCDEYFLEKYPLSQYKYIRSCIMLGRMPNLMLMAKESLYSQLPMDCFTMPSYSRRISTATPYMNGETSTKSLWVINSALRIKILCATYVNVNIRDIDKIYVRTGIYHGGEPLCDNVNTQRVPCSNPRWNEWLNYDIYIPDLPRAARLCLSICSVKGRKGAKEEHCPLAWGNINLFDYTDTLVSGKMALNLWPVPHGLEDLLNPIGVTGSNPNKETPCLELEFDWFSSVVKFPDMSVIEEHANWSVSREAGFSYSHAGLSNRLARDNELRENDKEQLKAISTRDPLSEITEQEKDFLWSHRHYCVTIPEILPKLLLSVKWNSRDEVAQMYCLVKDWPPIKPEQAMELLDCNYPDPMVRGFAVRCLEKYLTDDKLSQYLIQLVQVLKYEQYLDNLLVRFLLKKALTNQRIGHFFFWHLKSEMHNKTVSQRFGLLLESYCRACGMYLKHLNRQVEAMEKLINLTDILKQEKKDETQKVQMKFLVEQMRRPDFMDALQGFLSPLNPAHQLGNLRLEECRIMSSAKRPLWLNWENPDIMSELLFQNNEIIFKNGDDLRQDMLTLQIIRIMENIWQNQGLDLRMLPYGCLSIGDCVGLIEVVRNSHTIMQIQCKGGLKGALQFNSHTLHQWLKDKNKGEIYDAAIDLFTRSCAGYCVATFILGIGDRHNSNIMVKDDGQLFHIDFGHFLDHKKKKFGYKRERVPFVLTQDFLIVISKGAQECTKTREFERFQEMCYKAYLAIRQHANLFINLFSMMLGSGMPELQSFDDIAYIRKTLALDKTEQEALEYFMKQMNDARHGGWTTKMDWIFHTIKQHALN
Sequence (P27986 whole entry partner): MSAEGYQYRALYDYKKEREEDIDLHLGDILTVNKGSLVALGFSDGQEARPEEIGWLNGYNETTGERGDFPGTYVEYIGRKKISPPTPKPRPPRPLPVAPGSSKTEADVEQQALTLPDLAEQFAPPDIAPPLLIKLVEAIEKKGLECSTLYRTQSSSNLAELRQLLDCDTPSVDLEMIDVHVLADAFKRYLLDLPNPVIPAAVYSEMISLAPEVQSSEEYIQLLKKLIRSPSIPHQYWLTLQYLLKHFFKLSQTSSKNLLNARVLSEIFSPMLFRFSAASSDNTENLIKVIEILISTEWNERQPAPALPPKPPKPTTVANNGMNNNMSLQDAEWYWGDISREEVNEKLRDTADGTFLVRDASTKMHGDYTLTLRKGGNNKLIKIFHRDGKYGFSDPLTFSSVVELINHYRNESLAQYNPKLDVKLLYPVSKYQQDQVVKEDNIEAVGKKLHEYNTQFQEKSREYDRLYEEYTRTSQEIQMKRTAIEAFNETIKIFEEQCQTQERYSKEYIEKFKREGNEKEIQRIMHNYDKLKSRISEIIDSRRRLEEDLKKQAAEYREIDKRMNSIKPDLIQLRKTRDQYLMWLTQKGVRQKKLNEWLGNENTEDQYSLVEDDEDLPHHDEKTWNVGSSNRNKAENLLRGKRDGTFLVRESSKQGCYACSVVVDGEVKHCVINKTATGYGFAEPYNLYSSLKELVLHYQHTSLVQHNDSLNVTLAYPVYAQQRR
Assay: ADP-Glo Biochemical PIK3CA Kinase Assay
Quantity Measured: IC50

{"Molecule": "O=C(Nc1cc(-c2cn3ncnc3cn2)cc2c1C(c1cc(F)ccc1C(F)F)NC2=O)c1cc(F)cc(C(F)(F)F)c1 (stereo not drawn)", "Tested System": "H1047R PIK3CA enzyme (Homo sapiens, UniProt P42336, H1047R)", "Result": "≤ 0.1 µM"}
{"Molecule": "O=C(Nc1cc(-c2ccc3ncc(F)n3c2)cc2c1[C@H](c1cc(F)ccc1Cl)NC2=O)c1cc(F)cc(C(F)(F)F)c1", "Tested System": "H1047R PIK3CA enzyme (Homo sapiens, UniProt P42336, H1047R)", "Result": "≤ 0.1 µM"}
{"Molecule": "COC1CC(Nc2cc(NC(=O)c3cc(F)cc(C(F)(F)F)c3)c3c(c2)C(=O)NC3c2cc(F)ccc2Cl)C1 (single isomer, unassigned)", "Tested System": "H1047R PIK3CA enzyme (Homo sapiens, UniProt P42336, H1047R)", "Result": "≤ 0.1 µM"}
{"Molecule": "CC(C)(O)CNc1cc(NC(=O)c2cc(F)cc(C(F)(F)F)c2)c2c(c1)C(=O)N[C@H]2c1cc(F)ccc1Cl", "Tested System": "H1047R PIK3CA enzyme (Homo sapiens, UniProt P42336, H1047R)", "Result": "10 to 100 µM"}
{"Molecule": "O=C(Nc1cc(-c2cccnc2)cc2c1[C@@H](c1cc(F)ccc1Cl)NC2=O)c1cc(F)cc(C(F)(F)F)c1 (stereo in doubt)", "Tested System": "H1047R PIK3CA enzyme (Homo sapiens, UniProt P42336, H1047R)", "Result": "≤ 0.1 µM"}
{"Molecule": "O=C(Nc1cc(Br)cc2c1C(c1cc(F)ccc1Cl)NC2=O)c1cccc(C(F)F)c1 (stereo not drawn)", "Tested System": "H1047R PIK3CA enzyme (Homo sapiens, UniProt P42336, H1047R)", "Result": "1 to 10 µM"}

# batch: return IC50 for each of the 3 molecules below
1. CN1CCCC[C@H]1C(=O)Nc1cc(-c2ccc3ncnn3c2)cc2c1[C@@H](c1cc(F)ccc1Cl)NC2=O (racemic)
2. O=C1N[C@@H](c2cc(F)ccc2Cl)c2c(NC(=O)N3C[C@@](O)(C(F)F)c4cc(F)ccc43)cc(Cl)cc21 (single isomer, unassigned) [Compound I-2589]
3. CC(C)(O)c1cc(NC(=O)c2nsc3ccccc23)c2c(c1)C(=O)N[C@H]2c1cc(F)ccc1Cl

Reply text:
["10 to 100 µM", "1 to 10 µM", "≤ 0.1 µM"]

Batch lookup, IC50 per entry.
1. O=C1NC(c2cc(F)ccc2Cl)c2c(NC(=O)C3COCCN3)cc(-c3ccc4ncnn4c3)cc21 (mixture of isomers)
2. O=C1N[C@@H](c2cc(F)ccc2Cl)c2c(NC(=O)N3C[C@@H](O)c4cc(F)ccc43)cc(-n3ccnn3)cc21 (single isomer, unassigned)
3. CC(C)(O)c1cc(NC(=O)N2C[C@@H](O)c3ccccc32)c2c(c1)C(=O)N[C@@H]2c1cc(F)ccc1Cl (single isomer, unassigned)

Reply text:
10 to 100 µM
0.5 to 1 µM
10 to 100 µM

----------
Test: cells
Conditions: Homo sapiens, MCF-10A, read-out: MCF10A IC50
Quantity Measured: IC50

Some molecules with recorded IC50:
{"Molecule": "Nc1cc(NC(=O)N2C[C@@H](O)c3cc(F)ccc32)c2c(c1)C(=O)N[C@H]2c1cc(F)ccc1Cl (single isomer, unassigned)", "IC50": "10000 to 36000 nM"}
{"Molecule": "Cc1coc(Nc2cc(NC(=O)c3cc(F)cc(C(F)(F)F)c3)c3c(c2)C(=O)NC3c2cc(F)ccc2Cl)n1 (stereo not drawn)", "IC50": "< 1000 nM"}
{"Molecule": "COc1nccc(-c2cc(NC(=O)c3cc(F)cc(C(F)(F)F)c3)c3c(c2)C(=O)NC3c2cc(F)ccc2Cl)n1 (stereo not drawn)", "IC50": "< 1000 nM"}
{"Molecule": "O=C(Nc1cc(-c2cnoc2)cc2c1C(c1cc(F)ccc1Cl)NC2=O)c1cc(F)cc(C(F)(F)F)c1 (stereo not drawn)", "IC50": "< 1000 nM"}
{"Molecule": "N#Cc1ccc(-c2cc(NC(=O)c3cc(F)cc(C(F)(F)F)c3)c3c(c2)C(=O)NC3c2cc(F)ccc2Cl)cn1 (stereo not drawn)", "IC50": "< 1000 nM"}
{"Molecule": "O=C(Nc1cc(-c2cnc(N3CCOCC3)nc2)cc2c1C(c1cc(F)ccc1Cl)NC2=O)c1cc(F)cc(C(F)(F)F)c1 (stereo not drawn)", "IC50": "1000 to 5000 nM"}

Look at each molecule and report its IC50.
1. Cc1cc2ncc(-c3cc(NC(=O)c4cc(F)cc(C(F)(F)F)c4)c4c(c3)C(=O)NC4c3cc(F)ccc3Cl)cn2n1 (stereo not drawn)
2. C[C@]1(O)CN(C(=O)Nc2cccc3c2[C@H](c2cc(F)ccc2Cl)NC3=O)c2ccccc21 (single isomer, unassigned)
3. O=C1N[C@@H](c2cc(F)ccc2Cl)c2c(NC(=O)N3C[C@](O)(C(F)(F)F)c4cc(F)ccc43)ccc(-n3nccn3)c21 (single isomer, unassigned)
4. O=C1NC(c2cc(F)ccc2Cl)c2c(NC(=O)N3CC(O)(C(F)(F)F)c4cc(F)ccc43)cc(F)cc21 (stereo not drawn)
5. O=C1N[C@@H](c2cc(F)ccc2Cl)c2c(NC(=O)N3C[C@](O)(C(F)(F)F)c4cc(F)ccc43)ccc(-n3ccnn3)c21 (single isomer, unassigned)
6. C#Cc1ccccc1-c1cc(NC(=O)c2cc(F)cc(C(F)(F)F)c2)c2c(c1)C(=O)NC2c1cc(F)ccc1Cl (stereo not drawn)

Reply text:
["< 1000 nM", "< 1000 nM", "< 1000 nM", "< 1000 nM", "< 1000 nM", "< 1000 nM"]

----------
Molecular target: H1047R PIK3CA enzyme (Homo sapiens, UniProt P42336, H1047R)
Experiment: ADP-Glo Biochemical PIK3CA Kinase Assay
Assignment: determine reported IC50 for the given compounds.

# batch size: 2; output IC50 per entry
1. O=C1N[C@@H](c2cc(F)ccc2C(F)F)c2c(NC(=O)c3nsc4ccccc34)cccc21 [Compound I-168]
2. N#Cc1ccccc1C(=O)Nc1cc(Br)cc2c1C(c1cc(F)ccc1Cl)NC2=O (centres unmarked) [Compound I-639]

Reply text:
["≤ 100 nM", "10000 to 100000 nM"]

Dear colleague, could you please provide IC50 for the compounds listed below?
1. C[C@H](C#N)Oc1cc(NC(=O)c2cc(F)cc(C(F)(F)F)c2)c2c(c1)C(=O)N[C@@H]2c1cc(F)ccc1Cl (single isomer, unassigned) [Compound I-2005]
2. CN(C)c1cc(NC(=O)N2C[C@](O)(C(F)(F)F)c3cc(F)ccc32)c2c(n1)C(=O)N[C@H]2c1cc(F)ccc1Cl (single isomer, unassigned) [Compound I-2690]

Reply text:
1: 1000 to 10000 nM; 2: ≤ 100 nM

Could you report IC50 for every entry in the following list?
1. O=C(CO)Nc1cc(NC(=O)c2cc(F)cc(C(F)(F)F)c2)c2c(c1)C(=O)N[C@@H]2c1cc(F)ccc1Cl [Compound I-512]
2. O=C1NC(c2cc(F)ccc2Cl)c2c(NC(=O)N3CCc4cc(F)ccc43)cc(Br)cc21 (centres unmarked) [Compound I-1270]

Reply text:
100 to 500 nM
≤ 100 nM

For each of the compounds below, state IC50.
1. O=C(Nc1cc(C2(O)CC2)cc2c1C(c1cc(F)ccc1Cl)NC2=O)c1cc(F)cc(C(F)(F)F)c1 (centres unmarked) [Compound I-374]
2. O=C(Nc1cc(-c2ccc3ncnn3c2)nc2c1C(C1CCCCC1)NC2=O)c1cc(F)cc(C(F)(F)F)c1 (centres unmarked) [Compound I-1607]
3. O=C(Nc1cc(Br)cc2c1[C@@H](c1cc(F)ccc1F)NC2=O)c1cc(F)cc(C(F)(F)F)c1 [Compound I-671]
4. O=C(Nc1cc(Br)cc2c1C(c1cc(F)ccc1Cl)NC2=O)c1cc(F)ccc1C(F)F (centres unmarked) [Compound I-837]
5. O=C(Nc1cc(CN2CCNCC2)cc2c1C(c1cc(F)ccc1Cl)NC2=O)c1cc(F)cc(C(F)(F)F)c1 (centres unmarked) [Compound I-350]
6. Cn1cc(-c2cc(NC(=O)c3cc(F)cc(C(F)(F)F)c3)c3c(c2)C(=O)NC3c2cc(F)ccc2Cl)cnc1=O (centres unmarked) [Compound I-1404]
7. O=C(Nc1cc(-c2ccc3nnc(C(F)F)n3c2)cc2c1C(c1cc(F)ccc1Cl)NC2=O)c1cc(F)cc(C(F)(F)F)c1 (centres unmarked) [Compound I-1840]
8. Cc1cc2ncnn2cc1-c1cc(NC(=O)c2cc(F)cc(C(F)(F)F)c2)c2c(c1)C(=O)NC2c1cc(F)ccc1Cl (centres unmarked) [Compound I-1827]

Reply text:
["≤ 100 nM", "500 to 1000 nM", "1000 to 10000 nM", "1000 to 10000 nM", "≤ 100 nM", "≤ 100 nM", "≤ 100 nM", "≤ 100 nM"]
